pKi: −log10 of the molar value.
Below, pKi values reported for Tyrosine-protein kinase JAK2 (Homo sapiens, UniProt O60674) across several publications.

>  <compound>
CC[C@H](Nc1ccnc(-c2cnn3cccnc23)n1)c1ccc(F)c(F)c1

>  <target>
Tyrosine-protein kinase JAK2 (Homo sapiens, UniProt O60674)

>  <pKi>
7.00 to 8.00

$$$$
>  <compound>
COC[C@H]1CCCN1C(=O)c1cc(N[C@@H](C)C(=O)NCC(F)(F)F)nc(-c2c[nH]c3ncncc23)n1

>  <target>
Tyrosine-protein kinase JAK2 (Homo sapiens, UniProt O60674)

>  <pKi>
< 5.30

$$$$
>  <compound>
CC(C)(C)CC(=O)Nc1nc(-c2ncnc3[nH]ccc23)cs1

>  <target>
Tyrosine-protein kinase JAK2 (Homo sapiens, UniProt O60674)

>  <pKi>
> 7.00

$$$$
>  <compound>
C[C@@]1(O)CCCN(c2ccn(-c3cc(-c4c(F)cccc4C#N)nc4c3C(=O)NC4)n2)C1

>  <target>
Tyrosine-protein kinase JAK2 (Homo sapiens, UniProt O60674)

>  <pKi>
7.00 to 8.00

$$$$
>  <compound>
Nc1ccc2ccn(-c3cc(-c4c(F)cccc4F)nc4c3C(=O)NC4)c2n1

>  <target>
Tyrosine-protein kinase JAK2 (Homo sapiens, UniProt O60674)

>  <pKi>
≤ 6.00

$$$$
>  <compound>
C[C@H](Nc1cc(C#N)cc(-c2c[nH]c3ncncc23)n1)C(=O)NCC(F)(F)F

>  <target>
Tyrosine-protein kinase JAK2 (Homo sapiens, UniProt O60674)

>  <pKi>
5.30 to 6.30

$$$$
>  <compound>
CC(C)CCCOc1nc(N[C@@H](C)c2ccc(F)cc2)cc(-c2c(N)nn3cccnc23)n1

>  <target>
Tyrosine-protein kinase JAK2 (Homo sapiens, UniProt O60674)

>  <pKi>
7.00 to 8.00

$$$$
>  <compound>
CCCN(C)C(=O)c1cc(-c2ncnc3[nH]ccc23)cn1C

>  <target>
Tyrosine-protein kinase JAK2 (Homo sapiens, UniProt O60674)

>  <pKi>
> 7.00

$$$$
>  <compound>
O=C(NCC(F)(F)F)[C@H]1C[C@H](O)CN1c1ccnc(-c2c[nH]c3ncncc23)n1

>  <target>
Tyrosine-protein kinase JAK2 (Homo sapiens, UniProt O60674)

>  <pKi>
> 6.30

$$$$
>  <compound>
C[C@H](Nc1cc(-c2cnn3cccnc23)nc(OCC2CC2)n1)c1ccc(F)cc1F

>  <target>
Tyrosine-protein kinase JAK2 (Homo sapiens, UniProt O60674)

>  <pKi>
> 8.00

$$$$
>  <compound>
O=C1NCc2nc(-c3c(F)cccc3F)cc(Nc3ccc4c(n3)NCC4)c21

>  <target>
Tyrosine-protein kinase JAK2 (Homo sapiens, UniProt O60674)

>  <pKi>
7.00 to 8.00

$$$$
>  <compound>
N#Cc1cccc(F)c1-c1cc(-n2ccc(N3CC[C@@H](F)[C@@H](O)C3)n2)c2c(n1)CNC2=O

>  <target>
Tyrosine-protein kinase JAK2 (Homo sapiens, UniProt O60674)

>  <pKi>
8.00 to 10.00

$$$$
>  <compound>
O=C(CNc1nc(-c2c[nH]c3ncncc23)ncc1F)NCC(F)(F)F

>  <target>
Tyrosine-protein kinase JAK2 (Homo sapiens, UniProt O60674)

>  <pKi>
5.30 to 6.30

$$$$
>  <compound>
COC(C)C(=O)Nc1nc(-c2ncnc3[nH]ccc23)cs1 (stereo not shown)

>  <target>
Tyrosine-protein kinase JAK2 (Homo sapiens, UniProt O60674)

>  <pKi>
> 7.00

$$$$
>  <compound>
C[C@H](Nc1ncnc(-c2c[nH]c3ncncc23)n1)C(=O)NCC(F)(F)F

>  <target>
Tyrosine-protein kinase JAK2 (Homo sapiens, UniProt O60674)

>  <pKi>
5.30 to 6.30

$$$$
>  <compound>
C[C@H](Nc1cc(-c2cnn3cccnc23)nc(OCCCNCc2ccncc2)n1)c1ccc(F)cc1F

>  <target>
Tyrosine-protein kinase JAK2 (Homo sapiens, UniProt O60674)

>  <pKi>
> 8.00

$$$$
>  <compound>
CC#CC(C)Oc1nc(N[C@@H](C)c2ccc(F)cc2)cc(-c2c(N)nn3cccnc23)n1 (stereo partly shown)

>  <target>
Tyrosine-protein kinase JAK2 (Homo sapiens, UniProt O60674)

>  <pKi>
7.00 to 8.00

$$$$
>  <compound>
C=CCN(CC=C)C(=O)c1ccc(-c2ncnc3[nH]ccc23)o1

>  <target>
Tyrosine-protein kinase JAK2 (Homo sapiens, UniProt O60674)

>  <pKi>
> 7.00

$$$$
>  <compound>
O=C(c1ccc(-c2ncnc3[nH]ccc23)o1)N1CCCC1

>  <target>
Tyrosine-protein kinase JAK2 (Homo sapiens, UniProt O60674)

>  <pKi>
6.30 to 7.00

$$$$

---

pKi: −log10 of the molar value.
Literature pKi values, system: Tyrosine-protein kinase JAK2 (Homo sapiens, UniProt O60674).

>  <molecule>
O=C1NCc2nc(-c3c(F)cccc3F)cc(Nc3ccc(C(=O)N4CCC5(CC4)CC5)cc3)c21

>  <target>
Tyrosine-protein kinase JAK2 (Homo sapiens, UniProt O60674)

>  <pKi>
7.00 to 8.00

$$$$
>  <molecule>
C[C@H](Nc1cc(-c2c(N)nn3cccnc23)nc(OCCCC2CCCC2)n1)c1ccc(F)cc1

>  <target>
Tyrosine-protein kinase JAK2 (Homo sapiens, UniProt O60674)

>  <pKi>
6.30 to 7.00

$$$$
>  <molecule>
Oc1ccc(C2Nc3ccccc3-c3ncnc4[nH]cc2c34)c(Cl)c1 (stereo not drawn)

>  <target>
Tyrosine-protein kinase JAK2 (Homo sapiens, UniProt O60674)

>  <pKi>
> 6.60

$$$$
>  <molecule>
O=C1NCc2nc(-c3c(F)cccc3F)cc(-n3ccc(N4CCOCC4CO)n3)c21 (stereo not drawn)

>  <target>
Tyrosine-protein kinase JAK2 (Homo sapiens, UniProt O60674)

>  <pKi>
6.00 to 7.00

$$$$
>  <molecule>
CC(C)CN(CCC#N)C(=O)c1ccc(-c2ncnc3[nH]ccc23)o1

>  <target>
Tyrosine-protein kinase JAK2 (Homo sapiens, UniProt O60674)

>  <pKi>
> 7.00

$$$$
>  <molecule>
C[C@H](Nc1cc(-c2ccccc2)nc(-c2c[nH]c3ncncc23)n1)C(=O)NCC(F)(F)F

>  <target>
Tyrosine-protein kinase JAK2 (Homo sapiens, UniProt O60674)

>  <pKi>
5.30 to 6.30

$$$$

---

This section presents Ki values reported for Tyrosine-protein kinase JAK2 (Homo sapiens, UniProt O60674) in the literature.

>  <compound>
N#Cc1cccc(F)c1-c1cc(-n2ccc(N3CCCC(C(=O)O)C3)n2)c2c(n1)CNC2=O (stereo not shown)

>  <Ki>
10 to 100 nM

$$$$
>  <compound>
O=C(CCC(F)(F)F)Nc1nc(-c2ncnc3[nH]ccc23)cs1

>  <Ki>
< 100 nM

$$$$
>  <compound>
Cc1cc(Nc2cc(N3CCC3)nc(Sc3ccc(NC(=O)c4c(F)cccc4F)cc3)n2)[nH]n1

>  <Ki>
67 nM

$$$$
>  <compound>
CN(CC(F)(F)F)C(=O)c1ccc(-c2ncnc3[nH]ccc23)o1

>  <Ki>
< 100 nM

$$$$
>  <compound>
CC1(C)COc2cc(Nc3cc(-c4c(F)cccc4F)nc4c3C(=O)NC4)ccc21

>  <Ki>
100 to 1000 nM

$$$$
>  <compound>
CC1CCCN1C(=O)c1ccc(-c2ncnc3[nH]ccc23)o1 (stereo not shown)

>  <Ki>
< 100 nM

$$$$
>  <compound>
C[C@H](Nc1cc(-c2c(N)nn3cccnc23)nc(OC[C@@H]2CO2)n1)c1ccc(F)cc1

>  <Ki>
10 to 100 nM

$$$$
>  <compound>
COCCN(CCOC)C(=O)c1cc(-c2ncnc3[nH]ccc23)c[nH]1

>  <Ki>
< 100 nM

$$$$
>  <compound>
CCC[C@H](Nc1cc(-c2c(N)nn3ccc(C(F)(F)F)nc23)ncn1)c1ccc(F)cc1F

>  <Ki>
100 to 500 nM

$$$$
>  <compound>
OCCCCC1=Nc2ccccc2-c2ccnc3[nH]cc1c23

>  <Ki>
250 to 2500 nM

$$$$
>  <compound>
CCCCN(CC#N)C(=O)c1cc(-c2ncnc3[nH]ccc23)c[nH]1

>  <Ki>
< 100 nM

$$$$
>  <compound>
c1ccc2c(c1)N=C(c1ccncc1)c1c[nH]c3nccc-2c13

>  <Ki>
< 250 nM

$$$$
>  <compound>
N#Cc1cccc(F)c1-c1cc(-n2ccc(N3CCC[C@@H](N4CCOCC4)C3)n2)c2c(n1)CNC2=O

>  <Ki>
10 to 100 nM

$$$$
>  <compound>
CC(=O)Nc1ccn(-c2cc(-c3c(F)cccc3C#N)nc3c2C(=O)NC3)n1

>  <Ki>
100 to 1000 nM

$$$$
>  <compound>
O=C(NCC(F)(F)F)[C@@H]1CCCCN1c1ccnc(-c2c[nH]c3ncncc23)n1

>  <Ki>
500 to 5000 nM

$$$$
>  <compound>
Cc1cc(Nc2cc(N3CCC3)nc(Sc3ccc(NC(=O)c4cccc(Cl)c4)cc3)n2)n[nH]1

>  <Ki>
46 nM

$$$$
